Every entry's value here was drawn from ChEMBL document CHEMBL3351633.

Assay read-out IC50; system under study: Acetylcholinesterase (Homo sapiens, UniProt P22303).
Sequence (P22303 whole entry): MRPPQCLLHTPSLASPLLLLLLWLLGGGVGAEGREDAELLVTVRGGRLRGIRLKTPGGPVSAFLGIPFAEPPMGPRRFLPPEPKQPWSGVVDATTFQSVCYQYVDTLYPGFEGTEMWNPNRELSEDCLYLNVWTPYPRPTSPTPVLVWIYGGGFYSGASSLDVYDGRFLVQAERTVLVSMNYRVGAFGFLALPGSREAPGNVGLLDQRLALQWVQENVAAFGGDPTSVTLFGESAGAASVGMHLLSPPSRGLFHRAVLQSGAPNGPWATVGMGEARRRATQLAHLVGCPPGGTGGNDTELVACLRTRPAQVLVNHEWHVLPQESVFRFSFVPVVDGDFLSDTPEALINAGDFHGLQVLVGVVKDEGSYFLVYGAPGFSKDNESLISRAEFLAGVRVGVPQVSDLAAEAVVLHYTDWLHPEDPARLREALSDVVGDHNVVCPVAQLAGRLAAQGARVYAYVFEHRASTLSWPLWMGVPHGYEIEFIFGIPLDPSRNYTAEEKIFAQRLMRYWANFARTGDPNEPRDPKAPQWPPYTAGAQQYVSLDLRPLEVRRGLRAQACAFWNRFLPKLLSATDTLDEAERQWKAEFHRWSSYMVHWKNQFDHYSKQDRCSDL
reported-endpoint: IC50 (µM)

molecular_string=CNc1ccccc1-c1nc(C(N)=O)cs1 reported_endpoint=IC50 unit_string=µM number=53
molecular_string=CNc1ccccc1-c1nc(C(=O)O)cs1 reported_endpoint=IC50 unit_string=µM number=68
molecular_string=CNc1ccccc1-c1nc(C(=O)OC)cs1 reported_endpoint=IC50 unit_string=µM number=63
